These data points were gathered from patent US8759539B2.

Target entity: SSTR5 (Homo sapiens)
Sequence (P35346 whole entry): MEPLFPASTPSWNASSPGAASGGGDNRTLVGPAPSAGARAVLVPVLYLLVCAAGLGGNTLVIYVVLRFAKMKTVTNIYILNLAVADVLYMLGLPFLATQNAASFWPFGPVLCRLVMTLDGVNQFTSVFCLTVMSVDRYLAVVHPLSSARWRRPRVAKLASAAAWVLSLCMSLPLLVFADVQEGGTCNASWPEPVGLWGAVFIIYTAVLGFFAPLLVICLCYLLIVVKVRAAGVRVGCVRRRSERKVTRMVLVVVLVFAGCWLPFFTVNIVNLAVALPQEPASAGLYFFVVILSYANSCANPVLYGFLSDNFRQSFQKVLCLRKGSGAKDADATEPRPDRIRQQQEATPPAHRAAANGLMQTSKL
Experiment notes: Functional assay to assess the inhibition of SSTR5 mediated cyclic AMP production
Type: cell-based, human or mouse
Recorded conditions: SSTR5 stable CHO cells, 5 μM FSK, Lance cAMP assay kit, eight-point titration
pIC50: −log10 of the molar value.
Observable: pIC50

Previously resolved entries follow.
1. CCOc1cc(CN2CC[C@H]3C(NC(=O)c4cncnc4)CC[C@H]32)cc(OCC)c1-c1ccc(F)cc1 (some centres unmarked) [Example 75]; 6.41
2. CCOc1cc(CN2CC[C@H]3C(NC(=O)c4ccc(C)nc4)CC[C@H]32)cc(OCC)c1-c1ccc(F)cc1 (some centres unmarked) [Example 60]; 7.34
3. CCOc1cc(CN2CC[C@H]3C(NC(=O)c4cnc5cc(Cl)ccc5c4O)CC[C@H]32)cc(OCC)c1-c1ccc(F)cc1 (some centres unmarked) [Example 61]; 6.91
4. CCOc1cc(CN2CC[C@H]3C(NC(=O)c4cccc(C)c4)CC[C@H]32)cc(OCC)c1-c1ccc(F)cc1 (stereo in doubt) [Example 81]; 7.15

a. CCOc1cc(CN2CC[C@H]3C(NS(=O)(=O)c4cccc(C)c4)CC[C@H]32)cc(OCC)c1-c1ccc(F)cc1 (some centres unmarked) [Example 101]
b. CCOc1cc(CN2CC[C@H]3C(NC(=O)c4ccc5[nH]c(C)nc5c4)CC[C@H]32)cc(OCC)c1-c1ccc(F)cc1 (some centres unmarked) [Example 69]
c. CCOc1cc(CN2CC[C@H]3C(NC(=O)c4ccc5c(c4)nnn5C(C)C)CC[C@H]32)cc(OCC)c1-c1ccc(F)cc1 (some centres unmarked) [Example 72]
d. Cc1cncc(C(=O)N[C@H]2CC[C@@H]3[C@H]2CCN3Cc2cccc(-c3ccccc3)c2)c1 [Example 19]
Query: Would you mind ranking these compounds by ascending pIC50? Response format: the labels, sorted as the prompt asks.
Reply: d, a, b, c

a. CCOc1cc(CN2CC[C@H]3C(Nc4nc5cc(S(=O)(=O)/N=C/N(C)C)ccc5o4)CC[C@H]32)cc(OCC)c1-c1ccc(F)cc1 (some centres unmarked) [Example 100]
b. CCOc1cc(CN2CC[C@H]3C(Nc4nc5ccc(F)cc5o4)CC[C@H]32)cc(OCC)c1-c1ccc(F)cc1 (some centres unmarked) [Example 83]
c. CCOc1cc(CN2CC[C@H]3C(Nc4nc5ccc(C(=O)O)cc5o4)CC[C@H]32)cc(OCC)c1-c1ccc(F)cc1 (some centres unmarked) [Example 79]
Query: Ascending sort, pIC50. Labels, requested order.
Reply: b, a, c

I. CCOc1cc(CN2CC[C@H]3C(NC(=O)c4cccc(C)c4)CC[C@H]32)cc(OCC)c1-c1ccc(F)cc1 (stereo in doubt) [Example 63]
II. CCOc1cc(CN2CC[C@H]3C(NC(=O)Nc4cccc(C)c4)CC[C@H]32)cc(OCC)c1-c1ccc(F)cc1 (some centres unmarked) [Example 90]
Query: Compare reported pIC50 values for I and II . Which is lower? Mark your selection by writing its label.
Reply: II
(II: 7.07, I: 7.49)
